system: HEK-293T; assay: Incucyte cell viability with HEK293T; assay type: toxicity, cell-based; conditions: human, 12 h, 10 µM, compound concentration 10 uM, replicate number 2; further: unitless GR value; below 1 slowed growth and below 0 cell loss
Items are presented alongside their recorded Growth Rate.
Output spec: single numeric token, no unit.

Examples with answers:
CN(C(=O)CCOCCOCCOCCOCCNc1cccc2c1C(=O)N(C1CCC(=O)NC1=O)C2=O)[C@H]1CC[C@@]2(C)[C@@H](CC[C@@H]3[C@@H]2CC[C@]2(C)[C@@H](c4ccc5ccncc5c4)CC[C@@H]32)C1 (stereo partly drawn) : 0.73
Cc1cccc(CC(=O)N2CCc3c2ccc(-c2cn(C)c4ncnc(N)c24)c3F)n1 : 0.53
COCCNc1nc2ccc(C#CC3(O)CCCCC3)cc2n1-c1ccnc(N)n1 : 1

Consider now this further compound.
## Task // lookup Growth Rate for CC(C)c1ccc(CC(=O)N[C@H](C)c2ccc(OCC(F)(F)F)cn2)cc1 [SUVECALTAMIDE]
## Result 0.87
